- tested target: FSHR (Homo sapiens, UniProt P23945)
- Construct: expressed in transfected cells; host or cells: CHO (Cho-FSHR-LUC-1-1-43)
- Sequence (P23945 18-695): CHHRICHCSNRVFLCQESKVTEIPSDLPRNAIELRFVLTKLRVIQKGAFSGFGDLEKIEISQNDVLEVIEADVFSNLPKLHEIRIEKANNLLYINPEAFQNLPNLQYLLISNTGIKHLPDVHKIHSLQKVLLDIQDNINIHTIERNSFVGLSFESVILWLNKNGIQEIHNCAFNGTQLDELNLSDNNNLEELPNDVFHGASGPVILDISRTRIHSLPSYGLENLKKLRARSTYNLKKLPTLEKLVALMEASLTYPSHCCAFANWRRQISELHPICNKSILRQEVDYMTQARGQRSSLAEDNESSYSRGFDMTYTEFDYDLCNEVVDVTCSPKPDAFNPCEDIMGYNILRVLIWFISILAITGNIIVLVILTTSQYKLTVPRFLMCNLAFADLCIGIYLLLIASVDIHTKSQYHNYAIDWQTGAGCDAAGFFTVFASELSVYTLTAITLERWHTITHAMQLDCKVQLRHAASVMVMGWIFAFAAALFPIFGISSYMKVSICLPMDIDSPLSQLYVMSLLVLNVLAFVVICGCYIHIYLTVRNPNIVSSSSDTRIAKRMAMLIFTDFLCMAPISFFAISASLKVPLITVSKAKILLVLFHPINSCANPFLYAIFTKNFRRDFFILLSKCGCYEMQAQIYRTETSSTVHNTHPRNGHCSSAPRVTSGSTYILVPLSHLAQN
- Sequence (P01215 25-116 partner): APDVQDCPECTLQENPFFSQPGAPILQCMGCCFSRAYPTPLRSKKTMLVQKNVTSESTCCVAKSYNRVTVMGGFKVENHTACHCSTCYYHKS
- Sequence (P01225 19-129 partner): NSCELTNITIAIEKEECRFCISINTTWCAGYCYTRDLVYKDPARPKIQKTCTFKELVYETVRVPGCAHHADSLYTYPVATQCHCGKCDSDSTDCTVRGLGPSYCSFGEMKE
- assay comment: EC50 of cyclic AMP production in CHO FSHR cells + EC20 FSH (Assay A)
- Type: cell-based
- measurement setup: CHO FSHR cells + EC20 FSH; Table 2; read-out: Assay A EC50 of cyclic AMP production
measured endpoint: EC50

INSERT INTO measurements (molecule, assay_value) VALUES
  ('Cc1ccccc1N1CCN(c2ccc(C(=O)NCc3cccc(CO)c3)cc2NC(=O)c2coc(C3CC3)n2)CC1', '100 to 1000 nM'),
  ('Cc1ccccc1N1CCN(c2ccc(C(=O)NCCCC3CCCC3)cc2NC(=O)c2ccco2)CC1', '100 to 1000 nM'),
  ('Cc1ccccc1N1CCN(c2ccc(C(=O)NCCCN3C(=O)[C@H]4C[C@@H]3C(O)C4O)cc2NC(=O)c2ccco2)CC1 (some centres unmarked)', '< 100 nM'),
  ('Cc1cccc(C(=O)NCCCNC(=O)c2ccc(N3CCN(c4ccccc4C)CC3)c(NC(=O)c3coc(C4CC4)n3)c2)n1', '100 to 1000 nM'),
  ('Cc1ccc(C(=O)Nc2cc(C(=O)NCc3cccc(CN4CCCC4)c3)ccc2N2CCN(c3ccccc3C)CC2)o1', '1000 to 10000 nM'),
  ('Cc1ccccc1N1CCN(c2ccc(C(=O)NCCCN3CCCC3=O)cc2NC(=O)c2cc(C3CC3)n[nH]2)CC1', '100 to 1000 nM'),
  ('Cc1ccccc1N1CCN(c2ccc(C(=O)N[C@H]3CCC[C@H](O)[C@@H]3O)cc2NC(=O)c2coc(C3CC3)n2)CC1', '< 100 nM'),
  ('CC(C)(C)OC(=O)NC1CCN(c2ccc(C(=O)NCCCN3CCCC3=O)cc2NC(=O)c2coc(C3CC3)n2)CC1', '1000 to 10000 nM'),
  ('Cc1ccc(C)c(N2CCN(c3ccc(C(=O)NCCCN4CCCC4=O)cc3NC(=O)c3ccc(C)o3)CC2)c1', '100 to 1000 nM'),
  ('Cc1ccccc1N1CCN(c2ccc(C(=O)NCCCC(=O)NCCO)cc2NC(=O)c2coc(C3CC3)n2)CC1', '< 100 nM'),
  ('Cc1ccccc1N1CCN(c2ccc(C(=O)NCCCN3CCCC3=O)cc2NC(=O)c2cnc(C3CC3)s2)CC1', '100 to 1000 nM'),
  ('CCCCNC(=O)NCCCNC(=O)c1ccc(N2CCN(c3ccccc3C)CC2)c(NC(=O)c2ccco2)c1', '100 to 1000 nM'),
  ('O=C(NCCCN1CCCC1=O)c1ccc(N2CCN(c3cccnn3)CC2)c(NC(=O)c2coc(C3CC3)n2)c1', '1000 to 10000 nM'),
  ('Cc1ccccc1N1CCN(c2ccc(C(=O)NCCC(C)N3CCCC3=O)cc2NC(=O)c2coc(C3CC3)n2)CC1 (centres unmarked)', '100 to 1000 nM'),
  ('Cc1ccccc1N1CCN(c2ccc(C(=O)NCCCn3ccnc3C)cc2NC(=O)c2coc(C3CC3)n2)CC1', '100 to 1000 nM'),
  ('COc1cccc(CNC(=O)c2ccc(N3CCN(c4ccccc4C)CC3)c(NC(=O)c3coc(C4CC4)n3)c2)c1', '100 to 1000 nM'),
  ('Cc1ccccc1N1CCN(c2ccc(C(=O)NCCCN3CC(C)OC3=O)cc2NC(=O)c2coc(C3CC3)n2)CC1 (centres unmarked)', '100 to 1000 nM');
